# studyTarget: NR2F6 (Homo sapiens)
# Construct: expressed in transfected cells; also transient transfection
# Sequence (P10588 whole entry): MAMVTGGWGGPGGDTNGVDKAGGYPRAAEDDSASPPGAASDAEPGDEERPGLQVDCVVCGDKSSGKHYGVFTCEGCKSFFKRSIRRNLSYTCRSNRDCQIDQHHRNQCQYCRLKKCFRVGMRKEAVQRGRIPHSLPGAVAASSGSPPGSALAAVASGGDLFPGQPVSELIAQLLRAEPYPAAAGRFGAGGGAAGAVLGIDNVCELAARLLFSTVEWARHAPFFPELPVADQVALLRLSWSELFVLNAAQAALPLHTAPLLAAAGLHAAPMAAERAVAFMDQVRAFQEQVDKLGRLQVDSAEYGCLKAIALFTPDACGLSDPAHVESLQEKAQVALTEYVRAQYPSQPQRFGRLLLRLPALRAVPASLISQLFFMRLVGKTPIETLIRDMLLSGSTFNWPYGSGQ
# assayDetails: NR2F6 agonist screening, Firefly signal cmpd/DMSO
# Type: cell-based
# assayContext: F4; 1% FBS; 10 uM
Would you kindly list Firefly, F4, 1% FBS, cmpd/DMSO (mean) for each of these compounds?
Answers are plain numbers.

Take a look at these entries with their results.
O=S1(=O)C[C@H](N2CCCCC2)[C@@H](S(=O)(=O)c2ccc(Cl)cc2)C1	4.4
CC(C)CCN[C@H]1CS(=O)(=O)C[C@@H]1S(=O)(=O)c1cccs1	3.8
CCC(C)N[C@H]1CS(=O)(=O)C[C@@H]1S(=O)(=O)c1ccc(C)cc1 (stereo partly drawn)	2.8
CC(C)N[C@H]1CS(=O)(=O)C[C@@H]1S(=O)(=O)c1ccc(Cl)cc1	5.2
CCCCN(C)[C@H]1CS(=O)(=O)C[C@@H]1S(=O)(=O)c1ccc(Cl)cc1	5.0

Now for the compound whose Firefly, F4, 1% FBS, cmpd/DMSO (mean) we want.
Asked: Consider the compound shown here: O=S1(=O)C[C@H](NC2CCCC2)[C@@H](S(=O)(=O)c2ccc(F)cc2)C1 What is its recorded Firefly, F4, 1% FBS, cmpd/DMSO (mean)?
Given back: 1.8
